Listed below: IC50 values for each entry.
# Tested on: HeLa
# method: Anticancer activity against human HeLa cells assessed as inhibition of tumor cell proliferation after 48 hrs by MTT assay
# Format: functional, cell-based
Give me the value, and tack the unit on after it.

Example cases with answers are listed next.
Hello, I am looking for reported IC50 with HeLa for `CCOC(=O)c1c(N)sc(/N=C/c2ccc(C)cc2)c1C(=O)OCC` . Could you help?
41.9 µM

Repeat with `CCOC(=O)c1c(N)sc(/N=C/c2ccc(Br)cc2)c1C(=O)OCC`
25.9 µM

Repeat with `CCOC(=O)c1c(N)sc(/N=C/c2ccc(F)cc2)c1C(=O)OCC`
30.8 µM

Repeat with `CCOC(=O)c1c(N)sc(N)c1C(=O)OCC`
40.3 µM

Repeat with `CCOC(=O)c1c(N)sc(/N=C/c2ccncc2)c1C(=O)OCC`
35.4 µM

Consider now this further compound.
Hello, I am looking for reported IC50 with HeLa for `CCOC(=O)c1c(N)sc(/N=C/c2ccc(N(C)C)cc2)c1C(=O)OCC` . Could you help?
131 µM
